Here the recorded Kd is given for each entry.
- testedSystem: T1, human CD25 (human, UniProt P01589 22-213, limits assumed)
- T1 construct: Recombinant soluble human CD25, coated on plates (ELISA) or injected over captured antibody (BIAcore); also called hCD25; IL2-R alpha
- T1 sequence (looked up): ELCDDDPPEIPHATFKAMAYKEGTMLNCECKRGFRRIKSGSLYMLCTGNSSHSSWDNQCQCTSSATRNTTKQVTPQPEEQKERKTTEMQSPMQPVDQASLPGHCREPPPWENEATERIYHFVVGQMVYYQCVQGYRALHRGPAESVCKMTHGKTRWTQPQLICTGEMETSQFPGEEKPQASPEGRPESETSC
- experimentNotes: SPR (BIAcore)
A number alone suffices; assume nM.

Record excerpt, results attached:
Variant C15 (antibody, name in Kabat numbering, V domains shown, Isotype as printed: G1 fa; also called VRR-SE) VH: QVQLVQSGAEVKKPGSSVKVSCKASGYTFTSYRMHWVRQAPGQGLEWIGYIVPRRGYTEYNQKFKDKATITADESTNTAYMELSSLRSEDTAVYYCARGGGVFDYWGQGTLVTVSS VL: DIQMTQSPSTLSASVGDRVTITCSASSSISYMHWYQQKPGKAPKLLIYTTSELASGVPARFSGSGSGTEFTLTISSLQPDDFATYYCHQRSTYPLTFGQGTKVEVK; 0.029
Variant C10 (antibody, name in Kabat numbering, V domains shown, Isotype as printed: G1 fa) VH: QVQLVQSGAEVKKPGSSVKVSCKASGYTFTSYRMHWVRQAPGQGLEWIGYIRPRRGYTQYNQKFKDKATITADESTNTAYMELSSLRSEDTAVYYCARGGGVFDYWGQGTLVTVSS VL: DIQMTQSPSTLSASVGDRVTITCSASSSISYMHWYQQKPGKAPKLLIYTTSNLASGVPARFSGSGSGTEFTLTISSLQPDDFATYYCHQRSTYPLTFGQGTKVEVK; 0.244

With those in mind, consider the next binder.
// Kd lookup, binder = Variant C11 (antibody, name in Kabat numbering, V domains shown, Isotype as printed: G1 fa) VH: QVQLVQSGAEVKKPGSSVKVSCKASGYTFTSYRMHWVRQAPGQGLEWIGYISPKRGYTQYNQKFKDKATITADESTNTAYMELSSLRSEDTAVYYCARGGGVFDYWGQGTLVTVSS VL: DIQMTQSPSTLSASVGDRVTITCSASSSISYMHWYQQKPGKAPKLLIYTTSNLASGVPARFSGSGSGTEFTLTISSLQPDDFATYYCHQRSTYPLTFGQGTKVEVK , result: 0.138
